Biological target: T1, human SIRPα v1 ECD recombinant protein (tag not given) (human, UniProt P78324 31-373)
T1 construct: extracellular domain; also called biotin labeled soluble human SIRPα v1 ECD recombinant protein; ELISA microplate coated human SIRPα v1 ECD
T1 sequence (P78324 31-373): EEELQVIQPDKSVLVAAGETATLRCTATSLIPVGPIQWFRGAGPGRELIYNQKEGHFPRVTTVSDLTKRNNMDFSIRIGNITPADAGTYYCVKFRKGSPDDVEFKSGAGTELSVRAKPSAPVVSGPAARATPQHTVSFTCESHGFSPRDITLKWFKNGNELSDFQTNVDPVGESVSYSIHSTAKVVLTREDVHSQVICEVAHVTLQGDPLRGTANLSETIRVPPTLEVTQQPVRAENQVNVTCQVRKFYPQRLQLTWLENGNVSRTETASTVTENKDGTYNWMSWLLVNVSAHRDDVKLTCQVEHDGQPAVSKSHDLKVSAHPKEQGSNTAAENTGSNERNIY
Test: competitive ELISA, biotin human SIRPα v1 ECD on coated human CD47 ECD
endpoint: IC50
Answer format: value, then unit.

Illustrative cases are given below, each with its answer.
>  <binder>
HEFLB (antibody, V domains shown) VH: EVQLVQSGAEVKKPGESLRISCKASGYSFTSYWVHWVRQMPGKGLEWMGNIDPSDSDTHYSPSFQGHVTLSVDKSISTAYLQLSSLKASDTAMYYCVRGGTGTLAYFAYWGQGTLVTVSS VL: DVVMTQSPLSLPVTLGQPASISCRSSQSLVHSYGNTYLYWFQQRPGQSPRLLIYRVSNRFSGVPDRFSGSGSGTDFTLKISRVEAEDVGVYYCFQGTHVPYTFGGGTKVEIK

>  <IC50>
500 pM

$$$$
>  <binder>
071 (antibody, V domains shown, Mouse monoclonal hybridoma antibody; also called antibody 071; hybridoma antibody 071) VH: QIQLVQSGPELKKPGETVKISCKASGYTFTTYGMSWVKQAPGKGLKWMVWINTYSGVPTYADDFQGRFAFSLETSASTSYLQINNLRNEDTATYFCARDPHYYGTSPAWFAYWGQGTLVTVSA VL: DIVMTQSQKFMSTTIGDRVIITCKASQIVGIAVAWYQQKPGQSPKLLIYSASNRFTGVPDRFTGSGSGTDFTLTISNMQSEDLADYFCQQYSTYPFTFGSGTKLEIK

>  <IC50>
170 pM

$$$$
>  <binder>
025 (antibody, V domains shown, Mouse monoclonal hybridoma antibody; also called antibody 025; hybridoma antibody 025) VH: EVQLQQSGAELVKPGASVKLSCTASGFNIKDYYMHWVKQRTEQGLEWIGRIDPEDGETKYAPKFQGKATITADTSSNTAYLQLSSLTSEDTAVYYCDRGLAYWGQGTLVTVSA VL: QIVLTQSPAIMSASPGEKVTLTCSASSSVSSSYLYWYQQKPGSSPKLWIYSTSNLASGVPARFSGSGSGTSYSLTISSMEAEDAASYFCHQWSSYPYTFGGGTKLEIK

>  <IC50>
150 pM

$$$$

Then there is this binder:
# get_value(readout='IC50', item= 042 (antibody, V domains shown, Mouse monoclonal hybridoma antibody; also called antibody 042; hybridoma antibody 042) VH: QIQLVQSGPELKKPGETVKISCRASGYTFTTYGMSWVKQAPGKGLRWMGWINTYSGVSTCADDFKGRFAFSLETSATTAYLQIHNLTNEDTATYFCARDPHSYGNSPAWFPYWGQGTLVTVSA VL: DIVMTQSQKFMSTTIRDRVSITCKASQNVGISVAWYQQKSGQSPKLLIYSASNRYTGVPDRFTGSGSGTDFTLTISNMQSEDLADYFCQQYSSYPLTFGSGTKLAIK ) 140 pM
